Values compiled from patent US20070149480A1.

# experimental_details: Solubility of RTKi in phosphate buffer vehicle containing hydroxypropyl cyclodextrin (HPCD)
# Type: physicochemical
# condition_context: phosphate buffer with 1% HPCD, pH 7.2, aqueous with cosolvent or surfactant or cyclodextrin, RTKi Solubility, 1% HPCD in Phosphate Buffer
assay_endpoint: solubility (µg/mL)
Response body: numeric value in µg/mL, unit text excluded.

Return the recorded solubility value; entry: Cc1ccc(F)c(NC(=O)Nc2ccc(-c3cccc4[nH]nc(N)c34)cc2)c1 [RTKi]
82.3

###

# Test system: FGFR
# experimental_details: Kinase inhibition, cell-free enzymatic assay
# Type: biochemical
# condition_context: 1 mM ATP
assay_endpoint: IC50

Return the recorded IC50 value; entry: Cc1ccc(F)c(NC(=O)Nc2ccc(-c3cccc4[nH]nc(N)c34)cc2)c1
> 12.5 µM

###

# experimental_details: Solubility of RTKi in phosphate buffer vehicle containing sulfobutylether beta cyclodextrin (SBCD)
# Assay type: physicochemical
# condition_context: phosphate buffer with 20% SBCD, pH 7.2, aqueous with cosolvent or surfactant or cyclodextrin, RTKi Solubility, 20% SBCD Phosphate Buffer
# From the text: The present inventors have discovered that use of cyclodextrin derivatives to solubilize highly insoluble anti-angiogenic active compounds provides an efficacious ophthalmic formulation. […] Prototype intravitreal vehicle is shown in Example 1, and intravitreal and PJ formulations of the active compound containing HPCD are provided in Examples 2 and 3, respectively.
assay_endpoint: solubility (µg/mL)
Response body: numeric value in µg/mL, unit text excluded.

Return the recorded solubility value; entry: Cc1ccc(F)c(NC(=O)Nc2ccc(-c3cccc4[nH]nc(N)c34)cc2)c1
4120

###

# experimental_details: Solubility of RTKi in phosphate buffer vehicle containing hydroxypropyl cyclodextrin (HPCD)
# Type: physicochemical
# condition_context: phosphate buffer with 10% HPCD, pH 7.2, aqueous with cosolvent or surfactant or cyclodextrin, RTKi Solubility, 10% HPCD Phosphate Buffer
assay_endpoint: solubility (µg/mL)
Response body: numeric value in µg/mL, unit text excluded.

Return the recorded solubility value; entry: Cc1ccc(F)c(NC(=O)Nc2ccc(-c3cccc4[nH]nc(N)c34)cc2)c1
1090

###

# experimental_details: Solubility of RTKi in phosphate buffer vehicle containing hydroxypropyl cyclodextrin (HPCD)
# Assay type: physicochemical
# condition_context: phosphate buffer with 5% HPCD, pH 7.2, aqueous with cosolvent or surfactant or cyclodextrin, RTKi Solubility, 5% HPCD Phosphate Buffer
assay_endpoint: solubility
Field: value (include unit after the number)

Return the recorded solubility value; entry: Cc1ccc(F)c(NC(=O)Nc2ccc(-c3cccc4[nH]nc(N)c34)cc2)c1 [RTKi]
527 µg/mL

###

# experimental_details: Solubility of RTKi in phosphate buffer vehicle containing sulfobutylether beta cyclodextrin (SBCD)
# Type: physicochemical
# condition_context: phosphate buffer with 2.5% SBCD, pH 7.2, aqueous with cosolvent or surfactant or cyclodextrin, RTKi Solubility, 2.5% SBCD Phosphate Buffer
assay_endpoint: solubility (µg/mL)
Response body: numeric value in µg/mL, unit text excluded.

Return the recorded solubility value; entry: Cc1ccc(F)c(NC(=O)Nc2ccc(-c3cccc4[nH]nc(N)c34)cc2)c1
641

###

# experimental_details: Solubility of RTKi in phosphate buffer vehicle containing sulfobutylether beta cyclodextrin (SBCD)
# Format: physicochemical
# condition_context: phosphate buffer (0% SBCD), pH 7.2, aqueous buffer, RTKi Solubility
assay_endpoint: solubility (µg/mL)
Response body: numeric value in µg/mL, unit text excluded.

Return the recorded solubility value; entry: Cc1ccc(F)c(NC(=O)Nc2ccc(-c3cccc4[nH]nc(N)c34)cc2)c1
0.59

###

# experimental_details: Solubility of RTKi in phosphate buffer vehicle containing sulfobutylether beta cyclodextrin (SBCD)
# Assay type: physicochemical
# condition_context: phosphate buffer with 10% SBCD, pH 7.2, aqueous with cosolvent or surfactant or cyclodextrin, RTKi Solubility, 10% SBCD Phosphate Buffer
assay_endpoint: solubility (µg/mL)
Response body: numeric value in µg/mL, unit text excluded.

Return the recorded solubility value; entry: Cc1ccc(F)c(NC(=O)Nc2ccc(-c3cccc4[nH]nc(N)c34)cc2)c1
2520

###

# experimental_details: Solubility of RTKi in phosphate buffer vehicle containing sulfobutylether beta cyclodextrin (SBCD)
# Format: physicochemical
# condition_context: phosphate buffer with 5% SBCD, pH 7.2, aqueous with cosolvent or surfactant or cyclodextrin, RTKi Solubility, 5% SBCD Phosphate Buffer
assay_endpoint: solubility

Return the recorded solubility value; entry: Cc1ccc(F)c(NC(=O)Nc2ccc(-c3cccc4[nH]nc(N)c34)cc2)c1 [RTKi]
1090 µg/mL

###

# experimental_details: Solubility of RTKi in phosphate buffer vehicle containing hydroxypropyl cyclodextrin (HPCD)
# Type: physicochemical
# condition_context: phosphate buffer (0% HPCD), pH 7.2, aqueous buffer, RTKi Solubility, pH 7.2
assay_endpoint: solubility (µg/mL)
Response body: numeric value in µg/mL, unit text excluded.

Return the recorded solubility value; entry: Cc1ccc(F)c(NC(=O)Nc2ccc(-c3cccc4[nH]nc(N)c34)cc2)c1
0.59

###

# experimental_details: Solubility of RTKi in phosphate buffer vehicle containing sulfobutylether beta cyclodextrin (SBCD)
# Assay type: physicochemical
# condition_context: phosphate buffer with 1% SBCD, pH 7.2, aqueous with cosolvent or surfactant or cyclodextrin, RTKi Solubility, 1% SBCD in Phosphate Buffer
assay_endpoint: solubility (µg/mL)
Response body: numeric value in µg/mL, unit text excluded.

Return the recorded solubility value; entry: Cc1ccc(F)c(NC(=O)Nc2ccc(-c3cccc4[nH]nc(N)c34)cc2)c1
188
